Values compiled from ChEMBL document CHEMBL1932969.

This listing pairs compounds with measured inhibition of growth at 50 µM.
tested on: HT-29; test: Anticancer activity against human HT-29 cells assessed as growth inhibition at 50 uM after 48 hrs by SRB assay; type: functional; conditions: HT-29, 48 h, read-out: GI
API: value field is a number in %; no unit string.

Please review the entries below; each comes with its answer.
[
  {
    "COMPOUND": "C[C@H]1[C@H](C)CC[C@]2(C)CC[C@]3(C)C(=CC[C@@H]4[C@@]5(C)CC[C@@H](O)[C@](C)(C(=O)O)[C@@H]5CC[C@]43C)[C@H]12 [BOSWELLIC ACID]",
    "ENDPOINT_NAME": "inhibition of growth at 50 µM",
    "MEASURED_NUMBER": 66
  },
  {
    "COMPOUND": "C[C@H]1[C@H](C)CC[C@]2(C)CC[C@]3(C)C(=CC(=O)[C@@H]4[C@@]5(C)CC[C@H](OC(=O)CCC(=O)O)[C@](C)(C(=O)O)[C@@H]5CC[C@]43C)[C@H]12",
    "ENDPOINT_NAME": "inhibition of growth at 50 µM",
    "MEASURED_NUMBER": 17
  },
  {
    "COMPOUND": "COc1cccc2c1C(=O)c1c(O)c3c(c(O)c1C2=O)C[C@@](O)(C(=O)CO)C[C@@H]3O[C@H]1C[C@H](N)[C@H](O)[C@H](C)O1 [DOXORUBICIN]",
    "ENDPOINT_NAME": "inhibition of growth at 50 µM",
    "MEASURED_NUMBER": 88
  },
  {
    "COMPOUND": "CC(=O)O[C@@H]1CC[C@@]2(C)[C@@H](CC[C@]3(C)[C@@H]2C(=O)C=C2[C@@H]4[C@@H](C)[C@H](C)CC[C@]4(C)CC[C@]23C)[C@@]1(C)C(=O)O [AKBA]",
    "ENDPOINT_NAME": "inhibition of growth at 50 µM",
    "MEASURED_NUMBER": 88
  }
]

Moving on to another compound below.
Recall the reported inhibition of growth at 50 µM of CCC(=O)O[C@@H]1CC[C@@]2(C)[C@@H](CC[C@]3(C)[C@@H]2CC=C2[C@@H]4[C@@H](C)[C@H](C)CC[C@]4(C)CC[C@]23C)[C@@]1(C)C(=O)O when tested on HT-29.
93
